Assay: Inhibition of Pseudomonas aeruginosa LasB using Abz-Ala-Gly-Leu-Ala-p-Nitro-Benzyl-Amide as substrate by micro-titer based fluorimetric assay
EXPERIMENTAL_ENDPOINT: Ki (nM)
Entry rule: numbers only, all in nM.

Need Ki of NC(=O)[C@H](Cc1ccc(O)cc1)NC(=O)[C@H](Cc1ccccc1)NC(=O)CS , thanks.
41

* * *

Assay: Inhibition of Pseudomonas aeruginosa LasB using Abz-Ala-Gly-Leu-Ala-p-Nitro-Benzyl-Amide as substrate measured for every 60 sec for 30 mins by UV-fluorescence based assay
The label true (1) is reserved for Ki strictly under 4000 nM; false (0) covers values equal to or above it.

Answer whether the compound O=C(O)CC1(C(=O)NCCc2nc3ccccc3[nH]2)Cc2ccccc2C1 has Ki strictly less than 4000 nM
false (0)

* * *

System: Pseudomonas aeruginosa PAO1
Test: Inhibition of Pseudomonas aeruginosa PAO1 LasB using ECR as substrate assessed as reduction in elastin hydrolysis at 25 uM incubated for 16 hrs by congo-red dye based spectrophotometry relative to control
EXPERIMENTAL_ENDPOINT: inhibition (%)
Report as a plain number; the unit % is understood.

Please review the following examples before continuing.
O=C(O)CC1(C(=O)NCc2coc3ccccc23)Cc2ccccc2C1; 41
Cn1c(CNC(=O)C2(CC(=O)O)Cc3ccccc3C2)nc2ccccc21; 21
O=C(O)CC1(C(=O)NCc2nc(-c3ccccc3)cs2)Cc2ccccc2C1; 68

May I ask what inhibition has been recorded for O=C(O)CC1(C(=O)NCc2ncc(-c3ccccc3)s2)Cc2ccccc2C1 ?
42

Quick one: inhibition for O=C(O)CC1(C(=O)NCc2nccs2)Cc2ccccc2C1 ?
55

Give the measured inhibition of O=C(O)CC1(C(=O)NCCc2nc3ccccc3s2)Cc2ccccc2C1 .
11

* * *

Tested on: Pseudomonas aeruginosa PAO1
Experiment: Inhibition of Pseudomonas aeruginosa PAO1 LasB using ECR as substrate assessed as reduction in elastin hydrolysis at 50 uM incubated for 16 hrs by congo-red dye based spectrophotometry relative to control
Hi, to clarify the labels: label 1 covers inhibition from 30% upward, label 0 covers anything below 30%.

Given O=C(O)CC1(C(=O)NCc2coc3ccccc23)Cc2ccccc2C1 , state whether its inhibition is at least 30%.
label 1

Could you please find out whether O=C(O)CC1(C(=O)NCCc2nc3ccccc3[nH]2)Cc2ccccc2C1 has inhibition that meets 30% or exceeds it?
label 0

Textbook exercise: given the entry O=C(O)CC1(C(=O)NCc2nccs2)Cc2ccccc2C1 , state whether its inhibition is greater than or equal to 30%.
label 1

For this compound, is measured inhibition 30% or higher? O=C(O)CC1(C(=O)NCCc2nc3ccccc3s2)Cc2ccccc2C1
label 0

Say whether Cn1cc(CNC(=O)CC2(C(=O)O)Cc3ccccc3C2)cn1 shows inhibition of 30% or more.
label 0

Is it the case that Cc1ccc2oc(CNC(=O)C3(CC(=O)O)Cc4ccccc4C3)cc2c1 has inhibition reaching or exceeding 30%?
label 1

hey, is inhibition for this one >= 30%? O=C(CC1(C(=O)O)Cc2ccccc2C1)NCc1ccc2ccccc2n1
label 0

# bool: inhibition of O=C(O)CC1(C(=O)NCc2ccccc2)Cc2ccccc2C1 >= 30%
label 1

Given the entry Cn1c(CNC(=O)C2(CC(=O)O)Cc3ccccc3C2)nc2ccccc21 , answer whether its inhibition meets or surpasses 30%.
label 1

Is inhibition for O=C(O)CC1(C(=O)NCc2cc3ccccc3[nH]2)Cc2ccccc2C1 at or above 30%?
label 1

Reported inhibition at or above 30%? O=C(O)CC1(C(=O)NCc2nc(-c3ccccc3)cs2)Cc2ccccc2C1
label 1

* * *

pKi reference
Experiment: Inhibition of Pseudomonas aeruginosa LasB using Abz-Ala-Gly-Leu-Ala-p-Nitro-Benzyl-Amide as substrate measured for every 60 sec for 30 mins by UV-fluorescence based assay
pKi here is simply -log10 of the concentration when that concentration is written in mol/L.

Answered examples (5):
Cc1ccc2oc(CNC(=O)C3(CC(=O)O)Cc4ccccc4C3)cc2c1; 6.35
O=C(O)CC1(C(=O)NCc2nc3ccccc3s2)Cc2ccccc2C1; 6.80
C[C@H](NC(=O)C1(CC(=O)O)Cc2ccccc2C1)c1cc2ccccc2o1; 5.49
O=C(O)CC1(C(=O)NCc2ccccc2)Cc2ccccc2C1; 5.76
Cc1cc(Br)ccc1C(=O)NC1=NC(=O)CN1; 4.74

Look up pKi for this molecule: O=C(O)CC1(C(=O)NCc2cc3ccccc3s2)Cc2ccccc2C1
6.21

I'd like to know its pKi. The molecule in question is CC(NC(=O)CC1(C(=O)O)Cc2ccccc2C1)c1cc2ccccc2o1 (racemic)
4.83

Entry O=C(O)CC1(C(=O)NCc2ccc3ccccc3n2)Cc2ccccc2C1 : reported pKi = ?
6.21

Fill blank: measured pKi of the molecule O=C(O)CC1(C(=O)NCc2cc3ccccc3o2)Cc2ccccc2C1 is ____.
5.85

Which pKi reading was recorded for the molecule O=C(O)CC1(C(=O)NCc2nccs2)Cc2ccccc2C1 ?
6.21

* * *

Below is a list of entries, each paired with its recorded Ki value.
Assay: Inhibition of Pseudomonas aeruginosa LasB using Abz-Ala-Gly-Leu-Ala-p-Nitro-Benzyl-Amide as substrate measured for every 60 sec for 30 mins by UV-fluorescence based assay
Use µM as the unit, but write only the number.

Below are worked cases with known answers.
O=C(O)CC1(C(=O)NCc2c[nH]c3ccccc23)Cc2ccccc2C1; 3.54
Cn1c(CNC(=O)C2(CC(=O)O)Cc3ccccc3C2)cc2ccccc21; 0.69
Cc1ccccc1OCC(=O)N(CCC(=O)O)Cc1cccc(F)c1F; 6.87
Cn1cc(CNC(=O)C2(CC(=O)O)Cc3ccccc3C2)cn1; 4.04
O=C(O)CC1(C(=O)NCc2nc3ccccc3[nH]2)Cc2ccccc2C1; 21.5

What value of Ki has been recorded for this entry: O=C(O)CC1(C(=O)NCc2coc3ccccc23)Cc2ccccc2C1
1.9

What Ki value was documented for this molecule, O=C(O)CC1(C(=O)NCc2nc(-c3ccccc3)cs2)Cc2ccccc2C1 ?
0.12

Return reported Ki; argument: O=C(O)CC1(C(=O)NCCc2cc3ccccc3o2)Cc2ccccc2C1
5.66

Entry O=C(O)CC1(C(=O)NCc2cc3ccccc3[nH]2)Cc2ccccc2C1 has what Ki?
1.08

Looking for the measured Ki of O=C(O)CC1(C(=O)NCc2ncc(-c3ccccc3)s2)Cc2ccccc2C1 , can you help?
1.19

* * *

Assay: Inhibition of Pseudomonas aeruginosa LasB using Abz-Ala-Gly-Leu-Ala-p-Nitro-Benzyl-Amide as substrate measured for every 60 sec for 30 mins by UV-fluorescence based assay
EXPERIMENTAL_ENDPOINT: pKi
Please report pKi as the negative decimal logarithm of the molar concentration, giving only the number.

// solved cases for pKi follow
C[C@@H](NC(=O)C1(CC(=O)O)Cc2ccccc2C1)c1cc2ccccc2o1; 5.64
O=C(CC1(C(=O)O)Cc2ccccc2C1)NCc1ccc2ccccc2n1; 4.12
O=C(O)CC1(C(=O)NCCc2cc3ccccc3[nH]2)Cc2ccccc2C1; 5.36

# ---- query compound ----
Would you kindly share the measured pKi for O=C(O)CC1(C(=O)NCCc2nc3ccccc3s2)Cc2ccccc2C1 ?
4.98
